- Assay Remarks: qHTS profiling of the MIPE4 collection as inhibitors of Plasmodium falciparum (3D7) proliferation (AID 743344);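 further: scaled between DMSO vehicle wells and 0.29 µM artemisinin as full inhibition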
- Condition Details: P. falciparum 3D7 in erythrocytes, SYBR Green DNA fluorescence, 72 h; at 28.5 µM unless noted
- Experimental: Plasmodium falciparum is a virulent malarial parasite that kills 1-2 million people worldwide each year. […] Because mature erythrocytes lack DNA, only Plasmodium-derived DNA is detected. The SYBR Green viability assay was adapted from a method described previously (Plouffe et al., 2008). […] The following morning, fluorescence intensity at 485(14) nm excitation and 535(25) nm emission wavelengths was measured on an EnVision (Perkin Elmer) plate reader. […]
Below: a set of entries, each annotated with reported parasite growth, % of DMSO control.

Compound	parasite growth, % of DMSO control, %
CCCCCCCCCCCC1=C(O)C(=O)C=C(O)C1=O	54.7
Clc1ccc(CCC(Cn2ccnc2)Sc2c(Cl)cccc2Cl)cc1 (stereo unspecified)	5.77
c1ccc2c(Cc3c[nH]c4ccccc34)c[nH]c2c1	22.8
CON=C(C(=O)N[C@@H]1C(=O)N2C(C(=O)OCOC(=O)C(C)(C)C)=C(C=Cc3scnc3C)CS[C@H]12)c1csc(N)n1	60.4
C[C@]12CCC3c4ccc(O)cc4CCC3C1CCC2=O (stereo partly specified)	51.9

====

- Assay Remarks: qHTS of pediatric cancer cell lines to identify multiple opportunities for drug repurposing: Primary screen for SJ-GBM2 cells (AID 1347091)
- Condition Details: SJ-GBM2 viability, CellTiter-Glo luminescence, 48 h; series mostly up to 46 µM
Inconclusive results are not listed. Activity calls are given as the source filed them. Calls come from the whole dose curve; as a rule, active = well fitted cell-killing curve with a large enough effect; inconclusive = small, poorly fitted or top-dose-only effect; inactive = no such curve, though single readings can be large or run the other way.
Outcomes: y (active), n (inactive)

Structure Smiles	Class Assignment
CC(C)C[C@H](CC(=O)O)C(=O)N[C@@H](Cc1c[nH]c2ccccc12)C(=O)N[C@@H](C)c1ccccc1	y
CC(C)(C(=O)NCC(F)(F)C(F)(F)F)C(=O)N[C@@H]1C(=O)Nc2ccccc2-c2ccccc21	y
COc1cc2c(cc1OC)CN(CCc1ccc(NC(=O)c3cc(OC)c(OC)cc3NC(=O)c3cnc4ccccc4c3)cc1)CC2	n
Nc1ncnc2c1ncn2[C@@H]1O[C@H](CO)C[C@@H]1O	n

====

- Assay Remarks: Cell Viability - LYMP2-016 (AID 984);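 further: cells exposed to compound for 24 hours at 37 °C; nearly all actives have a fitted effect of over 55% in size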; further: potency means the concentration at half of the fitted maximal effect
- Condition Details: LYMP2-016 lymphoblastoid cell viability, qHTS; series mostly up to 92.2 µM
Results filed as inconclusive are left out. Activity calls are given as the source filed them. The call rests on the fitted dose curve; in most records, active means well fitted cell-killing curve with a large enough effect; inconclusive means small, poorly fitted or top-dose-only effect; inactive means flat fitted curve, though single readings scatter.

Compound	Potency
CCn1cc(C(=O)O)c(=O)c2ccc(C)nc21	inactive
O=c1c(-c2ccc(O)cc2)coc2cc(O)ccc12	inactive
O=c1[nH]cnc2c1ncn2[C@H]1CC[C@@H](CO)O1	inactive
O=C(O)Cc1cccc2ccccc12	inactive
CN(C)CCC(c1ccccc1)c1ccccn1 (stereo unspecified)	inactive
CC/C(=C(\c1ccccc1)c1ccc(OCCN(C)C)cc1)c1ccccc1	39.8 µM (active)
O=C(O)c1cc(O)c2c(c1)C(=O)c1cccc(O)c1C2=O	inactive
O=c1c(O)c(-c2ccc(O)cc2)oc2cc(O)cc(O)c12	inactive
CCCNC(=O)NS(=O)(=O)c1ccc(Cl)cc1	inactive
O=C1NC(=O)C(c2ccccc2)(c2ccccc2)N1	inactive
CC1=C(/C=C/C(C)=C/C=C/C(C)=C/C(=O)Nc2ccc(O)cc2)C(C)(C)CCC1	63.1 µM (active)
